meta.source: ChEMBL document CHEMBL5579809

- subject of test: Protein cereblon/CREB-binding protein (Homo sapiens) (UniProt Q92793+Q96SW2)
- experiment description: PROTAC activity at CRBN/HiBiT-tagged CBP in human HAP1 cells assessed as total cumulative degradation by measuring AUC at 1 nM measured over 24 hrs by luminescence based analysis
- Assay type: cell-based
test readout: AUC

Solved cases below.
Bench note: what AUC did CNC(=O)N1CCc2c(c(N3CCCc4cc(-c5cnn(C)c5)c(C(F)F)cc43)nn2C2CCN(C(=O)CCOCCOCCOCCOCCOCCOCCNc3ccc4c(c3)C(=O)N(C3CCC(=O)NC3=O)C4=O)CC2)C1 (stereo not given) show?
17.8

State the recorded AUC for this entry: CNC(=O)N1CCc2c(c(N3CCN(C(=O)NCCOCCOCCOCCOCCOCCOCCNc4ccc5c(c4)C(=O)N(C4CCC(=O)NC4=O)C5=O)c4cc(-c5cnn(C)c5)c(C(F)(F)F)cc43)nn2C2CCOCC2)C1 (stereo not given)
24.5

[P] CNC(=O)N1CCc2c(c(N3CCCc4cc(-c5cnn(CC(=O)NCCOCCNc6ccc7c(c6)C(=O)N(C6CCC(=O)NC6=O)C7=O)c5)c(C(F)F)cc43)nn2C2CCOCC2)C1 (stereo not given)
[Q] CNC(=O)N1CCc2c(c(N3CCCc4cc(-c5cnn(C)c5)c(C(F)(F)F)cc43)nn2C2CCN(C(=O)CCOCCOCCOCCOCCNc3ccc4c(c3)C(=O)N(C3CCC(=O)NC3=O)C4=O)CC2)C1 (stereo not given)
[R] CNC(=O)N1CCc2c(c(N3CCCc4cc(-c5cnn(C)c5)c(C(F)F)cc43)nn2C2CCN(C(=O)CCOCCNc3ccc4c(c3)C(=O)N(C3CCC(=O)NC3=O)C4=O)CC2)C1 (stereo not given)
Hello, I need these entries ordered by AUC, highest reading first. Thanks! Use the labels to give the requested order.
P, R, Q

###

- subject of test: Protein cereblon/CREB-binding protein (Homo sapiens) (UniProt Q92793+Q96SW2)
- experiment description: PROTAC activity at CRBN/HiBiT-tagged CBP in human HAP1 cells assessed as total cumulative degradation by measuring AUC at 1 nM measured over 24 hrs by luminescence based analysis
- Type: cell-based
test readout: AUC

[a] CNC(=O)N1CCc2c(c(N3CCCc4cc(-c5cnn(CC(=O)NCCOCCOCCOCCOCCNc6ccc7c(c6)C(=O)N(C6CCC(=O)NC6=O)C7=O)c5)c(C(F)F)cc43)nn2C2CCOCC2)C1 (stereo not given)
[b] CNC(=O)N1CCc2c(c(N3CCCc4cc(-c5cnn(C)c5)c(C(F)F)cc43)nn2C2CCN(C(=O)CCOCCOCCOCCOCCNc3ccc4c(c3)C(=O)N(C3CCC(=O)NC3=O)C4=O)CC2)C1 (stereo not given)
For this pair, a and b , which shows a numerically higher AUC? Answer format: the label of the selected item.
a

###

- subject of test: Protein cereblon/Histone acetyltransferase p300 (Homo sapiens) (UniProt Q09472+Q96SW2)
- Sequence (Q09472 2-2414 limits assumed): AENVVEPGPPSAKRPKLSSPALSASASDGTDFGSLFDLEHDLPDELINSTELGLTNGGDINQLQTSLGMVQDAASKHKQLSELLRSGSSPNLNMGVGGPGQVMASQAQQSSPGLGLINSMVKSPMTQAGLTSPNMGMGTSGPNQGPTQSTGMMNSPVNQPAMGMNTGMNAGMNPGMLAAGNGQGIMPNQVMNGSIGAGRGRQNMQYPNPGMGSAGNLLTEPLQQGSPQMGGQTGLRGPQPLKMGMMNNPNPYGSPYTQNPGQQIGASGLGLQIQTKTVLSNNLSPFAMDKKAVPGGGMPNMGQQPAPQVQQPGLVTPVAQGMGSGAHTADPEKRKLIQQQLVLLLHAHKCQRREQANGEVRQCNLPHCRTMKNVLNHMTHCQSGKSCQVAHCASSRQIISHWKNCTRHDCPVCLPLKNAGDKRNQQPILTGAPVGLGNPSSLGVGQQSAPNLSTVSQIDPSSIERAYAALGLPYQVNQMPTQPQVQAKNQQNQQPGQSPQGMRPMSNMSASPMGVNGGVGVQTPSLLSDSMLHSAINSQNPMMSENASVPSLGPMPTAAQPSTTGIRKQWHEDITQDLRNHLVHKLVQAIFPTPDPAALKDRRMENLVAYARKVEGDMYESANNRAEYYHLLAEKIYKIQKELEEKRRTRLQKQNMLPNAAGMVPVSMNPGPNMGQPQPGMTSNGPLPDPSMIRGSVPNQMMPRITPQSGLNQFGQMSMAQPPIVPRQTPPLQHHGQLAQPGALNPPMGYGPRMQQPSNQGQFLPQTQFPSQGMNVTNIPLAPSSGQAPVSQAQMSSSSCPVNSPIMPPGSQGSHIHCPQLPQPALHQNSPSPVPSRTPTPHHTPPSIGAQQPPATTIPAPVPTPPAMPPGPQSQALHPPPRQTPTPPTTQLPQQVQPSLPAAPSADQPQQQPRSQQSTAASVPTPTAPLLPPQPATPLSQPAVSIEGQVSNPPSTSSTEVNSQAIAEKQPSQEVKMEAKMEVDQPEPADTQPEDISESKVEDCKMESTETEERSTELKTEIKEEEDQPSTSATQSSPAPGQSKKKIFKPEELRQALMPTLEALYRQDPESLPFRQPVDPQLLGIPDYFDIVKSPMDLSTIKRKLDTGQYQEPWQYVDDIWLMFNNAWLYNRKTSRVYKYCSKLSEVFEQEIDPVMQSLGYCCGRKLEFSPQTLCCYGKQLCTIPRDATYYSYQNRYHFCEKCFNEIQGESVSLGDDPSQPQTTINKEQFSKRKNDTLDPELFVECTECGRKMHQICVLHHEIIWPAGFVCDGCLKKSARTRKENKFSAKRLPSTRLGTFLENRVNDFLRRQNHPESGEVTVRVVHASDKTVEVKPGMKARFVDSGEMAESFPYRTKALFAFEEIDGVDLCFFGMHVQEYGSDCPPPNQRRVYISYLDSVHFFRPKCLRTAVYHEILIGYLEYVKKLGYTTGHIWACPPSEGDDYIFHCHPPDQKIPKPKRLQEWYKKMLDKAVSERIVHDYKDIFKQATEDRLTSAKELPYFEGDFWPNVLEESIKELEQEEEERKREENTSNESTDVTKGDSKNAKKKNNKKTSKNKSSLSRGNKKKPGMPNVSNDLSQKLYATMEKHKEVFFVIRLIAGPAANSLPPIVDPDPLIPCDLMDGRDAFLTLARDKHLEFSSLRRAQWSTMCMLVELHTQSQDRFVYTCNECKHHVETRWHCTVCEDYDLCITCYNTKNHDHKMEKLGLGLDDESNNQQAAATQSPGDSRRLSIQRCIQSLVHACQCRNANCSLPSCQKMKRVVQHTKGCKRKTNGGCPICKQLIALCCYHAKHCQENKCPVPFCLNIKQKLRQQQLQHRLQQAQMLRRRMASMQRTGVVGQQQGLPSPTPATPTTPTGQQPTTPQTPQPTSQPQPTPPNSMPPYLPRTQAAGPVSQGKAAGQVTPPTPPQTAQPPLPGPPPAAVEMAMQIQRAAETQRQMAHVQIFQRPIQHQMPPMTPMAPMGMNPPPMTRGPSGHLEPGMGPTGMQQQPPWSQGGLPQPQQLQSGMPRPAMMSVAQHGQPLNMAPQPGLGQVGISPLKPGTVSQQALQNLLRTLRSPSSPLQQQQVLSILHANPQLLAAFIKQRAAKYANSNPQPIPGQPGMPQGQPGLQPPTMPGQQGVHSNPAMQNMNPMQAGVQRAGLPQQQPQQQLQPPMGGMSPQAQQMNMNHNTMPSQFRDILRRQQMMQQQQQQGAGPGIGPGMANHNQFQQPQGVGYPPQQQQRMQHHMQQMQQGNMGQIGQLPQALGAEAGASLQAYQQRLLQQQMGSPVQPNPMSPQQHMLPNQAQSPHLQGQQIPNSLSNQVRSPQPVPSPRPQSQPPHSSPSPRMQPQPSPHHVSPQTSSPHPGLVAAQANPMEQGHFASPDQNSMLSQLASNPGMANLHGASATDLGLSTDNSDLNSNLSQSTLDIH
- Sequence (Q96SW2 whole entry partner): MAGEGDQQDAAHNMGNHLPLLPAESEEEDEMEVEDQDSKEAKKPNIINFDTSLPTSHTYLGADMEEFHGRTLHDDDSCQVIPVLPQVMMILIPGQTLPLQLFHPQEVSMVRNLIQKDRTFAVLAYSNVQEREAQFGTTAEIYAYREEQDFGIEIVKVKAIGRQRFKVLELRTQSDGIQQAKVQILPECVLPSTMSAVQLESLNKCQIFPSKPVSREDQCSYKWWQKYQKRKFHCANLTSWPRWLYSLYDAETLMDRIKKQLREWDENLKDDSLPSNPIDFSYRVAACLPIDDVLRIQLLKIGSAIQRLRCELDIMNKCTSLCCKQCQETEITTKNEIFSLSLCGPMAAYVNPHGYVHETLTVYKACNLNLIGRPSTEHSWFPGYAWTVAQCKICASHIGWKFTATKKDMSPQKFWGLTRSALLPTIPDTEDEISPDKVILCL
- experiment description: PROTAC activity at CRBN/HiBiT-tagged p300 in human HAP1 cells assessed as induction of p300 degradation by measuring degradation rate at 100 nM measured over 24 hrs by luminescence based analysis
- Format: cell-based
test readout: Activity (h⁻¹)

Any idea what its Activity is? The compound is CNC(=O)N1CCc2c(c(N3CCCc4cc(-c5cnn(C)c5)c(C(F)F)cc43)nn2C2CCN(C(=O)CCOCCOCCOCCOCCNc3ccc4c(c3)C(=O)N(C3CCC(=O)NC3=O)C4=O)CC2)C1 (configuration not stated)
1

Which Activity value is on record for CNC(=O)N1CCc2c(c(N3CCCc4cc(-c5cnn(CC(=O)NCCOCCOCCOCCOCCNc6ccc7c(c6)C(=O)N(C6CCC(=O)NC6=O)C7=O)c5)c(C(F)F)cc43)nn2C2CCOCC2)C1 (configuration not stated) ?
0.11

Query: Activity; subject: CNC(=O)N1CCc2c(c(N3CCCc4cc(-c5cnn(C)c5)c(C(F)(F)F)cc43)nn2C2CCN(C(=O)CCOCCOCCOCCOCCNc3ccc4c(c3)C(=O)N(C3CCC(=O)NC3=O)C4=O)CC2)C1 (configuration not stated)
1

Requested field: Activity. Item: CNC(=O)N1CCc2c(c(N3CCCc4cc(-c5cnn(CC(=O)NCCOCCOCCOCCOCCOCCOCCNc6ccc7c(c6)C(=O)N(C6CCC(=O)NC6=O)C7=O)c5)c(C(F)F)cc43)nn2C2CCOCC2)C1 (configuration not stated)
0.02

// query Activity value for entry CNC(=O)N1CCc2c(c(N3CCCc4cc(-c5cnn(CC(=O)NCCOCCNc6ccc7c(c6)C(=O)N(C6CCC(=O)NC6=O)C7=O)c5)c(C(F)F)cc43)nn2C2CCOCC2)C1 (configuration not stated)
0.26

[A] CNC(=O)N1CCc2c(c(N3CCCc4cc(-c5cnn(C)c5)c(C(F)F)cc43)nn2C2CCN(C(=O)CCOCCNc3ccc4c(c3)C(=O)N(C3CCC(=O)NC3=O)C4=O)CC2)C1 (configuration not stated)
[B] CNC(=O)N1CCc2c(c(N3CCCc4cc(-c5cnn(C)c5)c(C(F)F)cc43)nn2C2CCN(C(=O)CCOCCOCCOCCOCCOCCOCCNc3ccc4c(c3)C(=O)N(C3CCC(=O)NC3=O)C4=O)CC2)C1 (configuration not stated)
Among A and B , which shows a numerically higher Activity result? Respond with the label that goes with your answer.
B

###

- subject of test: Protein cereblon/Histone acetyltransferase p300 (Homo sapiens) (UniProt Q09472+Q96SW2)
- experiment description: PROTAC activity at CRBN/HiBiT-tagged p300 in human HAP1 cells assessed as induction of p300 degradation by measuring maximal efficacy at 100 nM measured over 24 hrs by luminescence based analysis relative to control
- Format: cell-based
test readout: Emax (%)

Tell me the measured Emax of CNC(=O)N1CCc2c(c(N3CCCc4cc(-c5cnn(CC(=O)NCCOCCNc6ccc7c(c6)C(=O)N(C6CCC(=O)NC6=O)C7=O)c5)c(C(F)F)cc43)nn2C2CCOCC2)C1 (stereo not drawn) , please.
69

# query: Emax of entry CNC(=O)N1CCc2c(c(N3CCCc4cc(-c5cnn(C)c5)c(C(F)F)cc43)nn2C2CCN(C(=O)CCOCCOCCOCCOCCOCCOCCNc3ccc4c(c3)C(=O)N(C3CCC(=O)NC3=O)C4=O)CC2)C1 (stereo not drawn)
83

Given the compound CNC(=O)N1CCc2c(c(N3CCCc4cc(-c5cnn(C)c5)c(C(F)F)cc43)nn2C2CCN(C(=O)CCOCCOCCOCCOCCNc3ccc4c(c3)C(=O)N(C3CCC(=O)NC3=O)C4=O)CC2)C1 (stereo not drawn) , what is its reported Emax?
88

###

- subject of test: Protein cereblon/Histone acetyltransferase p300 (Homo sapiens) (UniProt Q09472+Q96SW2)
- experiment description: PROTAC activity at CRBN/HiBiT-tagged p300 in human HAP1 cells assessed as induction of p300 degradation by measuring maximal efficacy at 1000 nM measured over 24 hrs by luminescence based analysis relative to control
- Format: cell-based
test readout: Emax (%)

Recorded Emax, per entry:
Any idea what Emax came out for CNC(=O)N1CCc2c(c(N3CCCc4cc(-c5cnn(CC(=O)NCCOCCOCCOCCOCCNc6ccc7c(c6)C(=O)N(C6CCC(=O)NC6=O)C7=O)c5)c(C(F)F)cc43)nn2C2CCOCC2)C1 (centres undefined) on Protein cereblon/Histone acetyltransferase p300 (Homo sapiens) (UniProt Q09472+Q96SW2)?
55

Observed Emax on Protein cereblon/Histone acetyltransferase p300 (Homo sapiens) (UniProt Q09472+Q96SW2) for CNC(=O)N1CCc2c(c(N3CCCc4cc(-c5cnn(C)c5)c(C(F)(F)F)cc43)nn2C2CCN(C(=O)CCOCCOCCOCCOCCNc3ccc4c(c3)C(=O)N(C3CCC(=O)NC3=O)C4=O)CC2)C1 (centres undefined) , please.
84

State its Emax on Protein cereblon/Histone acetyltransferase p300 (Homo sapiens) (UniProt Q09472+Q96SW2): CNC(=O)N1CCc2c(c(N3CCCc4cc(-c5cnn(C)c5)c(C(F)F)cc43)nn2C2CCN(C(=O)CCOCCOCCOCCOCCNc3ccc4c(c3)C(=O)N(C3CCC(=O)NC3=O)C4=O)CC2)C1 (centres undefined)
86

Look up Emax with Protein cereblon/Histone acetyltransferase p300 (Homo sapiens) (UniProt Q09472+Q96SW2) for this compound: CNC(=O)N1CCc2c(c(N3CCN(C(=O)NCCOCCOCCOCCOCCNc4ccc5c(c4)C(=O)N(C4CCC(=O)NC4=O)C5=O)c4cc(-c5cnn(C)c5)c(C(F)(F)F)cc43)nn2C2CCOCC2)C1 (centres undefined)
26

Report Emax for CNC(=O)N1CCc2c(c(N3CCCc4cc(-c5cnn(CC(=O)NCCOCCNc6ccc7c(c6)C(=O)N(C6CCC(=O)NC6=O)C7=O)c5)c(C(F)F)cc43)nn2C2CCOCC2)C1 (centres undefined) tested on Protein cereblon/Histone acetyltransferase p300 (Homo sapiens) (UniProt Q09472+Q96SW2).
65

[P] CNC(=O)N1CCc2c(c(N3CCCc4cc(-c5cnn(C)c5)c(C(F)F)cc43)nn2C2CCN(C(=O)CCOCCOCCOCCOCCOCCOCCNc3ccc4c(c3)C(=O)N(C3CCC(=O)NC3=O)C4=O)CC2)C1 (centres undefined)
[Q] CNC(=O)N1CCc2c(c(N3CCN(C(=O)NCCOCCOCCOCCOCCOCCOCCNc4ccc5c(c4)C(=O)N(C4CCC(=O)NC4=O)C5=O)c4cc(-c5cnn(C)c5)c(C(F)(F)F)cc43)nn2C2CCOCC2)C1 (centres undefined)
[R] CNC(=O)N1CCc2c(c(N3CCN(C(=O)NCCOCCNc4ccc5c(c4)C(=O)N(C4CCC(=O)NC4=O)C5=O)c4cc(-c5cnn(C)c5)c(C(F)(F)F)cc43)nn2C2CCOCC2)C1 (centres undefined)
[S] CNC(=O)N1CCc2c(c(N3CCCc4cc(-c5cnn(C)c5)c(C(F)F)cc43)nn2C2CCN(C(=O)CCOCCNc3ccc4c(c3)C(=O)N(C3CCC(=O)NC3=O)C4=O)CC2)C1 (centres undefined)
Please produce an ascending ranking of these compounds based on Emax. Order the labels as requested and give them as your answer.
R, Q, S, P
